# System: Fibroblast
# Protocol summary: Multiplex assay against human fibroblast
# Format: toxicity, cell-based
# Condition parameters: 12 h, 1 µM, compound concentration 1 uM, replicate 2
Experimental readout: Population Fragmented Nuclei (%)
Return type: number; implicit unit %.

Completed entries (count: 5):
C=CC(=O)Nc1ccc2[nH]c(=O)n(C3CCN(Cc4ccc(-c5nc6cc[nH]c(=O)c6cc5-c5ccccc5)cc4)CC3)c2c1 [Borussertib]: 63
COc1ccccc1CN[C@H]1C2CCN(CC2)[C@H]1C(c1ccccc1)c1ccccc1 [CP-96345]: 4
COc1ccc(-c2ccc3ncc4c(c3c2)n(-c2ccc(N3CCNCC3)c(C(F)(F)F)c2)c(=O)n4C)cn1.O=C(O)/C=C\C(=O)O [BGT-226]: 24
Cc1cccc(CN2CCN(C(c3ccccc3)c3ccc(Cl)cc3)CC2)c1.Cl.Cl (centres undefined): 16
CC(C)(C)NC[C@H](O)COc1nsnc1N1CCOCC1 [TIMOLOL]: 5

The record that follows has no Population Fragmented Nuclei (%) shown yet.
Notebook: pull reported Population Fragmented Nuclei (%) for Fibroblast, entry CC(C)OC(=O)N1CCC(Oc2ncnc3c2cnn3-c2ccc(S(C)(=O)=O)cc2F)CC1
5

FYI, the data here is from ChEMBL document CHEMBL4689842.
